# PROCEDURE TEXT: Acid dissociation constants (pKa) by titration
# Type: physicochemical
# TEST SETTINGS: pH at semi-neutralization point of titration with 0.1 N NaOH or HCl
MEASURED METRIC: pKa1
A bare number is all that is needed in reply.

Solved entries:
COMPOUND: CC1=NN(c2ccccc2)C(=O)C1C1COCCN1O (centres unmarked)
MEASURED METRIC: pKa1
RESULT NUMBER: 3.31
--
COMPOUND: O=C1CC(c2ccccc2)CC(=O)C1C1COCCN1O (centres unmarked)
MEASURED METRIC: pKa1
RESULT NUMBER: 2.71
--
COMPOUND: O=C1CCC(=O)C1C1COCCN1O (centres unmarked)
MEASURED METRIC: pKa1
RESULT NUMBER: 2.32
--
COMPOUND: O=C1CCCC(=O)C1C1COCCN1O (centres unmarked)
MEASURED METRIC: pKa1
RESULT NUMBER: 3.00
--
COMPOUND: CC1(C)CCN(O)C(C2C(=O)CC(c3ccccc3)CC2=O)C1 (centres unmarked)
MEASURED METRIC: pKa1
RESULT NUMBER: 3.21
--
COMPOUND: CC1(C)CC(=O)C(C2CCCCN2O)C(=O)C1 (centres unmarked)
MEASURED METRIC: pKa1
RESULT NUMBER: 3.47
--
COMPOUND: O=C1c2ccccc2C(=O)C1C1COCCN1O (centres unmarked)
MEASURED METRIC: pKa1
RESULT NUMBER: 2.17
--
COMPOUND: Cc1cc(O)c(C2COCCN2O)c(=O)o1 (centres unmarked)
MEASURED METRIC: pKa1
RESULT NUMBER: 2.85

Which measured pKa1 value corresponds to CC1(C)CC(=O)C(C2CC(C)(C)CCN2O)C(=O)C1 (centres unmarked) ?
3.35

Please look up its pKa1: O=c1oc2ccccc2c(O)c1C1COCCN1O (centres unmarked)
2.70

GET /values?readout=pKa1&item= CC1(C)CC(=O)C(C2COCCN2O)C(=O)C1 (centres unmarked)
2.28

* * *

# Test system: healthy animals
# PROCEDURE TEXT: Effect of the compounds on healthy animals (same in vivo assay, cerebral oxidative parameters)
# Parameters: species or system mice
# TEST SETTINGS: healthy mice, 50 mg/kg IP x3 days; percentage change relative to the vehicle
As shown below, each of these compounds has a reported Prot. Hmg value.
# value in %; strip the unit string

Below, each entry is followed by its recorded Prot. Hmg result.
COMPOUND: CC1(C)CCN(O)C(C2C(=O)CC(c3ccccc3)CC2=O)C1 (stereo not drawn)
READOUT UNIT: %
Prot. Hmg: -2.2
--
COMPOUND: CC1(C)CC(=O)C(C2COCCN2O)C(=O)C1 (stereo not drawn)
READOUT UNIT: %
Prot. Hmg: 1.9
--
COMPOUND: CC1=NN(c2ccccc2)C(=O)C1C1COCCN1O (stereo not drawn)
READOUT UNIT: %
Prot. Hmg: 1.7
--
COMPOUND: O=C1CC(c2ccccc2)CC(=O)C1C1COCCN1O (stereo not drawn)
READOUT UNIT: %
Prot. Hmg: 5.0
--
COMPOUND: COc1cccc2c1C(=O)c1c(O)c3c(c(O)c1C2=O)C[C@@](O)(C(=O)CO)C[C@@H]3O[C@H]1C[C@H](N)[C@H](O)[C@H](C)O1 [doxorubicin, reference compound]
READOUT UNIT: %
Prot. Hmg: 8.3

Which measured Prot. Hmg belongs to O=c1oc2ccccc2c(O)c1C1COCCN1O (stereo not drawn) , tested on healthy animals?
3.1

Param readout= Prot. Hmg; system= healthy animals; entry= CC1(C)CC(=O)C(C2CCCCN2O)C(=O)C1 (stereo not drawn) ; returns value.
2.5

Quick check: Prot. Hmg on healthy animals, item CC1=NN(c2ccccc2)C(=O)C1 [edaravone, reference compound] ?
3.7

Lab note: need Prot. Hmg for O=C1CCC(=O)C1C1COCCN1O (stereo not drawn) on healthy animals, anyone have it?
3.6

Cited source for all entries: patent EP2345639A1
